Sourced from PubChem BioAssay AID2073

Molecular target: Voltage-dependent N-type calcium channel subunit alpha-1B (Homo sapiens)
Assay: disruptors of CaV2.2 binding to Mint1 – biochemical, HTRF (AID 2073)
Settings: HTRF protein-protein interaction, Mint1-CaV2.2; at 20 µM; active compounds read high
Screen size: about 290,000 compounds; about 570 (0.2%) were called active. Another 1% or so got no clear call; they are omitted. Many of the other results were omitted from the sample, so actives are more common in it than they were.
Lab note: anything with inhibition at or over 30% counts as Criterion met; the rest go in Criterion not met.

Reference set (5 entries):
{"columns": ["COMPOUND", "ANSWER_LABEL"],
 "data": [
  ["CCOC(=O)N1CCC(C(=O)NNC(=O)c2ccc(Cl)cc2Cl)CC1", "Criterion not met"],
  ["COc1ccccc1/C=c1\\sc2nc(-c3ccco3)nn2c1=O", "Criterion met"],
  ["COc1ccc(Br)cc1/C=c1\\sc2nc(-c3ccco3)nn2c1=O", "Criterion met"],
  ["COc1cccc(C(=O)NC2CC3CCCC(C2)N3CC(=O)Nc2ccccc2)c1 (stereo not given)", "Criterion met"],
  ["CCC(C(=O)NC1CC1)n1nc(C)c2c(C)n(-c3ccc(C)cc3)nc2c1=O (stereo not given)", "Criterion not met"]
]}

Does inhibition meet or surpass 30% for O=C(NC1CC1)c1cc(-c2ccco2)nc2ccccc12 ? Criterion met

Does inhibition meet or surpass 30% for NNC(=O)c1cc(O)c(O)c(O)c1 ? Criterion met

Does inhibition meet or surpass 30% for Cc1cc(-c2ccc(S(=O)(=O)N(C)Cc3ccccc3)cc2)on1 ? Criterion not met

Does inhibition meet or surpass 30% for Cc1ccc(C(=O)O)cc1-c1ccc(/C=C2\SC(=O)N(CC(=O)Nc3ccccc3)C2=O)o1 ? Criterion not met

Does inhibition meet or surpass 30% for O=C(/C=C/c1ccc2c(c1)OCO2)Nc1nc(-c2ccc(F)cc2F)cs1 ? Criterion not met

Does inhibition meet or surpass 30% for O=S(=O)(Nc1cc(Sc2ncn[nH]2)c(O)c2ccccc12)c1ccccc1 ? Criterion met

Does inhibition meet or surpass 30% for CCOc1ccc(/C=c2\sc3nc(-c4ccco4)nn3c2=O)cc1OCC ? Criterion met

Does inhibition meet or surpass 30% for COc1ccc(/C=C/C(=O)NC(=S)Nc2cc3oc4ccccc4c3cc2OC)cc1 ? Criterion not met

Does inhibition meet or surpass 30% for O=C(NC(=S)Nc1cccc(S(=O)(=O)NC2=NCCC2)c1)c1cc(-c2ccco2)nc2ccccc12 ? Criterion met

Does inhibition meet or surpass 30% for Cc1ccc(NC(=O)CN2C(=O)S/C(=C/c3ccc(-c4cccc(C(=O)O)c4)o3)C2=O)cc1 ? Criterion met
